Reported residual activity by item:
- assayTarget: Ephrin type-B receptor 1 (Homo sapiens) (UniProt P54762)
- Sequence (P54762 whole entry): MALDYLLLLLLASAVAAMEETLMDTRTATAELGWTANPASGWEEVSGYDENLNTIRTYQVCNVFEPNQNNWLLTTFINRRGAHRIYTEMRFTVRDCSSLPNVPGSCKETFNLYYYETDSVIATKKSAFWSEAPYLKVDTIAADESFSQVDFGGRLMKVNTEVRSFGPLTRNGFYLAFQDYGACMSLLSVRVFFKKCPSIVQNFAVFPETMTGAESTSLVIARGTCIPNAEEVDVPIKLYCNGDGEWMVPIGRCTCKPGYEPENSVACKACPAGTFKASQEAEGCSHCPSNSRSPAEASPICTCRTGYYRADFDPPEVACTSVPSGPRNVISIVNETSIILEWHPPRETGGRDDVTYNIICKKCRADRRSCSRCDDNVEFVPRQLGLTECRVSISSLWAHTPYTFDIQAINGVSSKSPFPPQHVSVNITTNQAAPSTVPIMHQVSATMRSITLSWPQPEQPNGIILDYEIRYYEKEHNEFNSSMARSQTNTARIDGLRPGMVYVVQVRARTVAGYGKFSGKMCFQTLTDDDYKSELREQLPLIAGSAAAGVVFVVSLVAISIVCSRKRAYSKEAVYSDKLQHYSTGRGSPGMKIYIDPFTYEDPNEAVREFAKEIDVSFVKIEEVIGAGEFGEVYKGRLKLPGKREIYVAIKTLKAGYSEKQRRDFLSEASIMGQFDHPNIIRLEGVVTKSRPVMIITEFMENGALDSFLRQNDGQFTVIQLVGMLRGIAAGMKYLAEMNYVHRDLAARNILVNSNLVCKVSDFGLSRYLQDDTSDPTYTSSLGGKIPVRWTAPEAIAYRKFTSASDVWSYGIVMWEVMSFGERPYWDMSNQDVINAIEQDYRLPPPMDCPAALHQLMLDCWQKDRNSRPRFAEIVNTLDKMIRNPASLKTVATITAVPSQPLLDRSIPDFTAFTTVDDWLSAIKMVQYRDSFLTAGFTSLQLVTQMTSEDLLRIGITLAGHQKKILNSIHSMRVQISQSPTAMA
- experimentalConditions: at 1 µM
reportedProperty: residual activity (%)

compound | unitOfMeasure | recordedValue
O=C1c2ccccc2-[n+]2ccc3c([nH]c4ccccc43)c21 | % | 85
CC[n+]1c(/C=C/N(C)c2ccccc2)n(-c2ccccc2)c2ccc(-c3nc4ccccc4s3)cc21 | % | 103
O=C1Nc2ccccc2/C1=C1/Nc2ccccc2/C1=N\OCCC(O)CO (configuration not stated) | % | 56
CO[C@H]1C[C@@H]2CC[C@@H](C)[C@@](O)(O2)C(=O)C(=O)N2CCCC[C@H]2C(=O)O[C@H]([C@H](C)C[C@@H]2CC[C@@H](O)[C@H](OC)C2)CC(=O)[C@H](C)/C=C(\C)[C@@H](O)[C@@H](OC)C(=O)[C@H](C)C[C@H](C)/C=C/C=C/C=C/1C | % | 101
NC(=O)c1ccc2[nH]c(-c3ccc(Oc4ccc(Cl)cc4)cc3)nc2c1 | % | 95
CC(C)n1cnc2c(NCc3ccccc3)nc(NCCCO)nc21 | % | 93
CCN(CC)CCCCN1c2ccccc2Oc2ccc(Cl)cc21 | % | 100
